assay: Inhibition of Escherichia coli GlmU
Kindly supply the reported IC50 values for the records listed here.
Please state the figure in nM; there is no need to write the unit.

Note IC50 for the molecule shown: COc1cc(OC)c(S(=O)(=O)N2c3ccccc3Oc3ccccc32)cc1NC(=O)[C@@H]1C(C)[C@H]1C(=O)O (mixture of isomers)
30

Quote IC50 reported for "COc1cc(OC)c(S(=O)(=O)N2c3ccccc3Oc3ccccc32)cc1NC(=O)/C=C/C(=O)O" please.
10

Give the value of IC50 reported for the following: "COc1cc(OC)c(S(=O)(=O)N(c2ccccc2)c2ccc(N)cc2)cc1NC(=O)CCC(=O)O"
20

Quote IC50 reported for "COc1cc(OC)c(S(=O)(=O)N2c3ccccc3Oc3ccccc32)cc1NC(=O)Cc1ccnc(F)c1" please.
90

Consider the molecule COc1cc(O)c(S(=O)(=O)N2c3ccccc3Oc3ccccc32)cc1NC(=O)[C@@H]1C(C)[C@H]1C(=O)O (relative stereo) . State its measured IC50.
60

Find the measured IC50 of COc1cc(OC)c(S(=O)(=O)N2c3ccccc3CCC2C)cc1NC(=O)Cc1ccnc(C#N)c1 (stereo not drawn) and report it.
680

Give IC50 for the following molecule: COc1cc(OC)c(S(=O)(=O)N2c3ccccc3CCC2C)cc1NC(=O)[C@@H]1C(C)[C@H]1C(=O)O (mixture of isomers)
400

Consider the molecule "COc1cc(OC)c(S(=O)(=O)N2Cc3ccccc3Oc3ccccc32)cc1NC(=O)CCC(=O)O" and give its recorded IC50.
30

Specify reported IC50 for the molecule shown: "COc1cc(OC)c(S(=O)(=O)N(c2ccc(C)cc2)c2ccc(C)cc2)cc1NC(=O)CCC(=O)O"
40

Consider the molecule COc1cc(O)c(S(=O)(=O)N2c3ccccc3CCC2C)cc1NC(=O)CCC(=O)O (stereo not drawn) . State its measured IC50.
50

Consider the molecule COc1cc(OC)c(S(=O)(=O)N2c3ccccc3CCC2C)cc1NC(=O)Cc1ccnc(F)c1 (stereo not drawn) . State its measured IC50.
800

Read the entry "COc1cc(OC)c(S(=O)(=O)N(c2ccccc2)c2ccc3ccccc3c2)cc1NC(=O)CCC(=O)O" and write its reported IC50.
40

Tell me its IC50 given "COc1cc(OC)c(S(=O)(=O)N2c3ccccc3Sc3ccccc32)cc1NC(=O)CCC(=O)O" as the entry.
90

Identify IC50 associated with the molecule "COc1cc(OC)c(S(=O)(=O)N(c2ccccc2)c2ccccc2)cc1NC(=O)CCC(=O)O"
40

Give me measured IC50, please, for this molecule: "COc1cc(OC)c(S(=O)(=O)N2c3ccccc3Oc3ccccc32)cc1NC(=O)Cc1ccncc1"
60

For the molecule "COc1cc(OC)c(S(=O)(=O)N2c3ccccc3Oc3ccccc32)cc1NC(=O)CCC(=O)O" , give its measured IC50 value.
10

State, in one line, measured IC50 of COc1cc(OC)c(S(=O)(=O)N2c3ccccc3CCC2C)cc1NC(=O)CCc1nn[nH]n1 (stereo not drawn)
430

Data credit: ChEMBL document CHEMBL2203064
